Source: PubChem BioAssay (EPA / NIEHS)

Target: mouse Estrogen Receptor alpha (Era), Esr1 (gene 13982) (UniProt P19785)
Sequence (P19785 whole entry, looked up): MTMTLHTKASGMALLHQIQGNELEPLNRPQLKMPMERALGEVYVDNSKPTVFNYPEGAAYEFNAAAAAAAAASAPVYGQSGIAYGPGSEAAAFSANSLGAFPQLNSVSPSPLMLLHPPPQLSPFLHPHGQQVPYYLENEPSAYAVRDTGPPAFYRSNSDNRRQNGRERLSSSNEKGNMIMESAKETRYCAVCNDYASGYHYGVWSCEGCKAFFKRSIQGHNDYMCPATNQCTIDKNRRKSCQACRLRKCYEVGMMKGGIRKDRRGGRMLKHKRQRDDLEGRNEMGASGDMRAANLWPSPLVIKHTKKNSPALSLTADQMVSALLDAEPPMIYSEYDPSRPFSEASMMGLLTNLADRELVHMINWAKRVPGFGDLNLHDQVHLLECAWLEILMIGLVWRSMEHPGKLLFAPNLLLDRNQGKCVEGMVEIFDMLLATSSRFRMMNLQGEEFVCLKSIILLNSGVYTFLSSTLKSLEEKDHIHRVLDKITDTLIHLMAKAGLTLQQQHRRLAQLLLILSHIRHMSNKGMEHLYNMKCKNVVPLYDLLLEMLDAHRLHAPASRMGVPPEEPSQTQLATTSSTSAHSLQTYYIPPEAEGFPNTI
Assay: NVS_NR_mERa: NovaScreen (NVS) Nuclear Receptor Binding Assay for mouse Estrogen Receptor alpha (Era) (AID 2283378);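 also: hit means loss of bound radioligand signal relative to DMSO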
Experimental: NVS_NR_mERa is a biochemical, single-readout assay that uses extracted gene-proteins in a cell-free assay. Measurements were taken 18 hours after chemical dosing in a 96-well plate.NVS_NR_mERa is one of one assay component(s) measured or calculated from the NVS_NR_mERa assay. […] This assay endpoint, NVS_NR_mERa, was analyzed in the positive analysis fitting direction relative to DMSO as the negative control and baseline of activity. […]
Records with an inconclusive call do not appear. The source made the active and inactive calls. The calls were made as follows: active = hit-call score of the fitted dose curve at least 0.9, where 1 is the maximum; inconclusive = response in the unintended direction; inactive = score below 0.9.
Returns: one label drawn from active, inactive

{"columns": ["COMPOUND", "CLASS_ASSIGNMENT"],
 "data": [
  ["NNC(=S)NN", "active"]
]}

Lookup: I would be grateful if you could indicate the recorded call for CC(C)OC(=O)Nc1ccccc1 .
Found: active

----------
Molecular target: human Phosphodiesterase 10 (PDE10), PDE10A (gene 10846) (UniProt Q9Y233)
Sequence (Q9Y233 whole entry, looked up): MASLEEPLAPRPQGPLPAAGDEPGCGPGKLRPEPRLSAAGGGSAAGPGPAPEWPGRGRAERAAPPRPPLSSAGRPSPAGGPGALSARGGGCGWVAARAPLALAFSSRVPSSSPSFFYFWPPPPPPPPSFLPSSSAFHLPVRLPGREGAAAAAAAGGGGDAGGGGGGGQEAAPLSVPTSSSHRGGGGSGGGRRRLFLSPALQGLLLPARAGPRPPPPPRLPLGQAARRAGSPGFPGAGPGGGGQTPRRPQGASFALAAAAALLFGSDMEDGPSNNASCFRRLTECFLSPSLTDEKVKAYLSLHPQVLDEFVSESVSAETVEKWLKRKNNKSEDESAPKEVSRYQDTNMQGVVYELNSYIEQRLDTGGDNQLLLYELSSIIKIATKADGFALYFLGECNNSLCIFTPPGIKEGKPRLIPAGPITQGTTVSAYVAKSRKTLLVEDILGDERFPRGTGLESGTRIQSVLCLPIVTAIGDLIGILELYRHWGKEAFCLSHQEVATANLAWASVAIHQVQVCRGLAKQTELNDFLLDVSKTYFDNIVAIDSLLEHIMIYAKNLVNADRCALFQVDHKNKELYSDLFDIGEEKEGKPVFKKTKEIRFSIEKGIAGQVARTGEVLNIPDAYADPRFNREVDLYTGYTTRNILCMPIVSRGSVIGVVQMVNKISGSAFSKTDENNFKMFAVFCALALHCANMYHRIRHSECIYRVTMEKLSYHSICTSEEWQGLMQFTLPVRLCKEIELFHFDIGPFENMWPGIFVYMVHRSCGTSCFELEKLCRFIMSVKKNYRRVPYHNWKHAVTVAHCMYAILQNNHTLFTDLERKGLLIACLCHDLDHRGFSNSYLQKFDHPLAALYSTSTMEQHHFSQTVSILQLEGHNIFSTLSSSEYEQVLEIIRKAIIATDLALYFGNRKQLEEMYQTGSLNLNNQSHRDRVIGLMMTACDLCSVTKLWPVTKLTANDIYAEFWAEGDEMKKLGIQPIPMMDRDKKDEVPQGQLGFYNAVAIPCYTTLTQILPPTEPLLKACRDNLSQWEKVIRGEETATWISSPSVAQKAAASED
Test: NVS_ENZ_hPDE10: NovaScreen (NVS) Enzymatic Assay for human Phosphodiesterase 10 (PDE10) (AID 2283195)
Description: NVS_ENZ_hPDE10 is a biochemical, single-readout assay that uses extracted gene-proteins in a cell-free assay. Measurements were taken 1 hour after chemical dosing in a 384-well plate.NVS_ENZ_hPDE10 is one of one assay component(s) measured or calculated from the NVS_ENZ_hPDE10 assay. […] This assay endpoint, NVS_ENZ_hPDE10, was analyzed in the positive analysis fitting direction relative to DMSO as the negative control and baseline of activity. […]
Results filed as inconclusive are left out. Calls of active or inactive are those of the source. How the source made its calls: active means hit-call score of the fitted dose curve at least 0.9, where 1 is the maximum; inconclusive means response in the unintended direction; inactive means score below 0.9.
VALUE_KIND: outcome

{"columns": ["COMPOUND", "SYSTEM_TESTED", "outcome"],
 "data": [
  ["COc1cccc(C=O)c1", "human Phosphodiesterase 10 (PDE10), PDE10A (gene 10846) (UniProt Q9Y233)", "inactive"],
  ["O=Cc1cccc(Oc2ccccc2)c1", "human Phosphodiesterase 10 (PDE10), PDE10A (gene 10846) (UniProt Q9Y233)", "inactive"],
  ["CC(Br)C(=O)O (centres undefined)", "human Phosphodiesterase 10 (PDE10), PDE10A (gene 10846) (UniProt Q9Y233)", "inactive"],
  ["O=C(Cl)c1ccc(Cl)cc1", "human Phosphodiesterase 10 (PDE10), PDE10A (gene 10846) (UniProt Q9Y233)", "inactive"],
  ["ClCCBr", "human Phosphodiesterase 10 (PDE10), PDE10A (gene 10846) (UniProt Q9Y233)", "inactive"]
]}

Lookup: I am curious: what outcome value has been reported for ClC1=C(Cl)[C@]2(Cl)[C@@H]3[C@@H](Cl)[C@@H](Cl)C[C@@H]3[C@@]1(Cl)C2(Cl)Cl ?
Found: inactive

Lookup: // outcome lookup, key: CN(CCCC(=O)c1cccnc1)N=O
Found: inactive

Lookup: Look up outcome: Nc1ncc([N+](=O)[O-])s1
Found: inactive

Lookup: outcome for CCCCC(CC)CO[N+](=O)[O-] (centres undefined) ?
Found: inactive

----------
read-out: Insulin-like growth factor-binding protein 1 (IGFBP1), IGFBP1 (gene 3484); assay: LTEA_HepaRG_IGFBP1: Life Technologies and Expression Analysis (LTEA) Assay for Insulin-like growth factor-binding protein 1 (IGFBP1) using HepaRG (AID 2283508); details: mRNA level, 48 h; actives raise or lower the signal
The source made the active and inactive calls. How the source made its calls: active means hit-call score of the fitted dose curve at least 0.9, where 1 is the maximum; inactive means score below 0.9.
Can you answer with just one of these options? active, inactive

Examples with answers:
{"columns": ["MOLECULE", "CLASS_ASSIGNMENT"],
 "data": [
  ["C=CC(=O)OCCCCCC(C)C", "inactive"],
  ["O=[N+]([O-])c1ccc(O)c([N+](=O)[O-])c1", "active"],
  ["CCC(=O)C(CC(C)N(C)C)(c1ccccc1)c1ccccc1 (centres undefined)", "inactive"],
  ["O=C(O)C(F)(F)C(F)(F)C(F)(F)C(F)(F)C(F)(F)C(F)(F)C(F)(F)C(F)(F)C(F)(F)C(F)(F)F", "inactive"],
  ["C=C(C)C(=O)[O][Sn]([CH2]CCC)([CH2]CCC)[CH2]CCC", "active"]
]}

Lookup: Status in this test for CC(C)(c1ccccc1)c1ccc(O)c(C(C)(C)c2ccccc2)c1 ?
Found: inactive

Lookup: So what was the verdict on CC(=O)[O][Hg][c]1ccccc1 in this test?
Found: active

Lookup: So what was the verdict on CC12CC1(C)C(=O)N(c1cc(Cl)cc(Cl)c1)C2=O (centres undefined) in this test?
Found: inactive

Lookup: Tell me the recorded outcome of this test for CCOP(=S)(OCC)SCSP(=S)(OCC)OCC .
Found: inactive
